These entries and their values trace back to PubChem BioAssay (NCI).

Give measured TGI for each item. Keep answers brief.
- Test system: MDA-MB-435
- test: NCI tumour cell line growth inhibition, 48 h

Example molecules with recorded TGI:
INSERT INTO measurements (molecule, assayed_system, property, test_result) VALUES
  ('C=CCc1cc(C(Cc2ccccc2)NC(C)C)cc(OCc2ccccc2)c1OCc1ccccc1 (stereo not drawn)', 'MDA-MB-435', 'TGI', '29.2 µM'),
  ('Cc1nc2[nH]ncn2c(=O)c1CCO', 'MDA-MB-435', 'TGI', '> 10 µM'),
  ('O=C1c2ccccc2C(=O)c2c(NCC3CO3)ccc(NCC3CO3)c21 (stereo not drawn)', 'MDA-MB-435', 'TGI', '2.58 µM'),
  ('O=S(=O)(/N=C(\NO)Nc1ccc(Cl)cc1)c1ccccc1', 'MDA-MB-435', 'TGI', '> 64 µM'),
  ('CSc1c(CC(=O)Nc2ccc(Cl)cc2)n(Cc2ccccc2)c2ccccc12', 'MDA-MB-435', 'TGI', '> 100 µM'),
  ('Cc1ccc(O)c(C2=CC(c3cccc(Br)c3)SC(N)=N2)c1 (stereo not drawn)', 'MDA-MB-435', 'TGI', '37.2 µM');

Please look at the items below and tell me TGI for each one, in order.
1. COC(=O)/C=C(\S/C=C(/c1ccccc1)N1CCn2c(C(=O)c3ccccc3)c(C(=O)OC)c(C(=O)OC)c21)C(=O)OC
2. O=C(Nc1nnc(-c2c(Cl)c(Cl)c(Cl)c(Cl)c2-c2nc3cc(C(=O)c4ccccc4)ccc3[nH]2)o1)c1ccc(Cl)cc1

["> 10 µM", "> 100 µM"]

* * *

- Test system: HCT-116 colon
- test: NCI tumour cell line growth inhibition, 48 h; in the data active = GI50 below about 0.43 µM; inactive = the rest
Field 'call' accepts class 1 = active, class 0 = inactive

INSERT INTO assay_data (smiles_representation, label) VALUES
  ('NC(=Nc1ccc(N)cc1)C(N)=Nc1ccc(N)cc1', 'class 0'),
  ('Cc1cn(-c2ccc(S(C)(=O)=O)cc2)c(-c2ccc(Cl)cc2)n1', 'class 0'),
  ('C[C@@H]1COCCN1c1cc(C2([S@@](C)(=N)=O)CC2)nc(-c2ccnc3[nH]ccc23)n1', 'class 0'),
  ('CCS(=O)(=O)c1ccc(OC)c(Nc2ncc(-c3ccccc3Cl)o2)c1', 'class 0'),
  ('O=C(NCc1ccco1)c1cccc(NC2=C(Cl)C(=O)N(Cc3ccccc3)C2=O)c1', 'class 0');

Hi team, can someone confirm the assay call for N#CN1CC[C@H](C(=O)Nc2cc3cc(C(N)=O)ccc3cn2)C1 ? class 1

Check the results log: what was the call for CCOC(=O)/C=C/C(=O)[C@H](CC(C)C)NC(=O)[C@H](Cc1ccccc1)NC(=O)OCc1ccccc1 ? class 0

Field: outcome | Entry: Nc1nc(=O)n([C@@H]2CS[C@H](CO)O2)cc1F class 0

In this assay, the call recorded for O=C(CC(=O)c1cccc(Cl)c1)c1cccc(Cl)c1 was what? class 0

// param item: Cc1cc(Nc2cc(N3CCN(C)CC3)nc(Sc3ccc(NC(=O)C4CC4)cc3)n2)n[nH]1 ; yields the recorded call class 1

* * *

- Test system: SNB-19 CNS
- test: NCI tumour cell line growth inhibition, 48 h
Assign TGI to each entry below.

Could I get TGI for every one of these entries?
1. COc1ccc(C2C3CCCC(C3=O)C(c3ccc(OC)cc3)N2N=O)cc1 (configuration not stated)
2. COP(=O)(OC)/C(=C/c1cn(C(c2ccccc2)(c2ccccc2)c2ccccc2)cn1)NC=O
3. Nc1nc(=O)n([C@@H]2CS[C@H](CO)O2)cc1F
4. Nc1c2c(nc3ccccc13)-c1ccccc1NCCC2
5. CC(=O)c1cc(C(=O)c2ccc3c(c2)Sc2ccccc2N3)c2c(C)cccn12
6. C=CCCCCOC1C=CC(O)C(CO)O1 (configuration not stated)
7. CC(C)/C(=N\[N+](C)(C)C)c1ccccc1
8. COc1ccc(C(=O)N/N=C/c2c(C)n(C)n(-c3ccccc3)c2=O)cc1

["> 91.2 µM", "> 100 µM", "> 100 µM", "> 100 µM", "> 100 µM", "> 100 µM", "> 100 µM", "> 100 µM"]
